These data points were gathered from PubChem BioAssay AID1076.

- Assay: LNCaP cell loss by flow event count, confirmation, cytotoxicity control for prostate differentiation activator project, single point (AID 1076);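 also: counts scatter-gated live cells after medium removal discards detached dead cells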
- Measurement Setup: flow cytometry event count, 4 d, event count, at 10 µM, stronger effect = lower value
Collected cell event count values appear next to each entry.
Parameter Measured: cell event count

O=C(COc1ccc2ccccc2c1)N1CCN(C2CCN(Cc3ccccc3)CC2)CC1; 324
CCOc1ccc(C2SCC(=O)Nc3c2c(=O)[nH]n3C2CCCCCC2)cc1 (stereo unspecified); 101
CCn1c(=O)cc(OCC(=O)N2CCC3(CC2)OCCO3)c2ccccc21; 411
Clc1ccc(COC(Cn2ccnc2)c2ccc(Cl)cc2Cl)cc1 (stereo unspecified); 82
Cc1cc(OCC(=O)O)c2c3c(c(=O)oc2c1)CCCC3; 157
Cc1ccc(Cn2c(C)c3cnn(CC(=O)N4CCC5(CC4)OCCO5)c(=O)c3c2C)cc1; 202
